Could you please report measured switch fluorescence ratio for the items listed next?
System: ATP;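 further: ATP exposure 15 min at 22 °C before imaging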
Assay: switch fluorescence ratio, 500 uM ATP over buffer (Cy3 cluster intensity, sum of 5 cycles each) (fold (ratio)); higher = stronger signal-on switching upon ATP binding; sequences stand for … in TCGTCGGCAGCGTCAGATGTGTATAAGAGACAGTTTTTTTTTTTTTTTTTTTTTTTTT…TC
Conditions: aptamer strand: ATP DNA aptamer (quencher-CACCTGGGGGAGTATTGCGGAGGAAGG + anchor), 100 nM annealed; ATP concentration: 500 uM
No unit in the answer, only the number.

Problem: Look up switch fluorescence ratio: "GAGGGCATGA"
Solution: 0.993

Problem: Look up switch fluorescence ratio: "TCGTTTGAGT"
Solution: 0.997

Problem: Look up switch fluorescence ratio: "GGGTCTAGAG"
Solution: 1.03

Problem: Look up switch fluorescence ratio: "GCAATGATGT"
Solution: 1.06

Problem: Look up switch fluorescence ratio: "TGAGCTTGGG"
Solution: 0.99

Problem: Look up switch fluorescence ratio: "ATGGACAGGT"
Solution: 1.04

Problem: Look up switch fluorescence ratio: "TTTTTGCTTA"
Solution: 0.993

Problem: Look up switch fluorescence ratio: "TTCAATGTAG"
Solution: 1

Problem: Look up switch fluorescence ratio: "TCCTTTGTGG"
Solution: 1.02

Problem: Look up switch fluorescence ratio: "TCTGAGAGGA"
Solution: 0.972

###

Could you please report measured switch fluorescence ratio for the items listed next?
System: ATP;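 further: ATP exposure 15 min at 22 °C before imaging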
Assay: switch fluorescence ratio, 500 uM ATP over buffer (Cy3 cluster intensity, sum of 5 cycles each) (fold (ratio)); higher = stronger signal-on switching upon ATP binding; sequences stand for … in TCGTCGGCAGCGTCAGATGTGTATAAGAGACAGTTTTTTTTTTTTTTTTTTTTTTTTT…TC
Conditions: aptamer strand: ATP DNA aptamer (quencher-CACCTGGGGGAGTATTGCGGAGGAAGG + anchor), 100 nM annealed; ATP concentration: 500 uM
No unit in the answer, only the number.

Problem: Look up switch fluorescence ratio: "GACTGCGGGG"
Solution: 0.987

Problem: Look up switch fluorescence ratio: "AAGTTGGGG"
Solution: 0.99

Problem: Look up switch fluorescence ratio: "TTATGGACTG"
Solution: 1.01

Problem: Look up switch fluorescence ratio: "TTTAAGGGCC"
Solution: 0.978

Problem: Look up switch fluorescence ratio: "GTGTAGGGAT"
Solution: 0.964

Problem: Look up switch fluorescence ratio: "AGGTCACAG"
Solution: 1

Problem: Look up switch fluorescence ratio: "CCAAGGGATG"
Solution: 0.967

Problem: Look up switch fluorescence ratio: "AATATGTTTT"
Solution: 1.01

Problem: Look up switch fluorescence ratio: "ACCTGATTAA"
Solution: 1.01

Problem: Look up switch fluorescence ratio: "GCTCGTAGGC"
Solution: 0.99

Problem: Look up switch fluorescence ratio: "TTTCAGTCGG"
Solution: 1.01

Problem: Look up switch fluorescence ratio: "CAAGGTTGAA"
Solution: 0.99

Problem: Look up switch fluorescence ratio: "GGTTAGAAGG"
Solution: 0.96

Problem: Look up switch fluorescence ratio: "CGGAGTCGCC"
Solution: 1.01

Problem: Look up switch fluorescence ratio: "AATGCTCGGC"
Solution: 0.965

Problem: Look up switch fluorescence ratio: "GGATTGTAGG"
Solution: 0.974

Problem: Look up switch fluorescence ratio: "TTTATGTTT"
Solution: 0.984

Problem: Look up switch fluorescence ratio: "CGTTCGGGTT"
Solution: 0.989

Problem: Look up switch fluorescence ratio: "GCGTATCGGA"
Solution: 1.01

Problem: Look up switch fluorescence ratio: "ATTGATGTTT"
Solution: 1.01

Problem: Look up switch fluorescence ratio: "GAAGAGATGT"
Solution: 1.01

Problem: Look up switch fluorescence ratio: "AGTCGGATGT"
Solution: 0.989

Problem: Look up switch fluorescence ratio: "CGTATCTATC"
Solution: 1.01

Problem: Look up switch fluorescence ratio: "AGGGGATAGT"
Solution: 0.966

Problem: Look up switch fluorescence ratio: "AAGTCCACAC"
Solution: 1.05

Problem: Look up switch fluorescence ratio: "GGGGGCGTGT"
Solution: 0.977

Problem: Look up switch fluorescence ratio: "CTTGTTCTTA"
Solution: 0.996

Problem: Look up switch fluorescence ratio: "TTAAATTTTA"
Solution: 1.01

Problem: Look up switch fluorescence ratio: "ATCTTTGCTA"
Solution: 1

Problem: Look up switch fluorescence ratio: "TTAGGCCCTG"
Solution: 0.992

Problem: Look up switch fluorescence ratio: "CCGCTTCCGG"
Solution: 1.08

Problem: Look up switch fluorescence ratio: "ACCCGCTTTT"
Solution: 1.38

Problem: Look up switch fluorescence ratio: "TTACGAAGGG"
Solution: 1.01

Problem: Look up switch fluorescence ratio: "CGTTATCTAG"
Solution: 1.01

Problem: Look up switch fluorescence ratio: "TCGGGTAGGG"
Solution: 0.991

Problem: Look up switch fluorescence ratio: "TAATTTTTGG"
Solution: 0.992

Problem: Look up switch fluorescence ratio: "TTAAAGCGGC"
Solution: 0.993

Problem: Look up switch fluorescence ratio: "AGGCTACCGT"
Solution: 1.03

Problem: Look up switch fluorescence ratio: "CCAGCCTTTT"
Solution: 1.02

Problem: Look up switch fluorescence ratio: "TGAGTAATAG"
Solution: 2.01

Problem: Look up switch fluorescence ratio: "ATTTGTGTA"
Solution: 0.992

Problem: Look up switch fluorescence ratio: "AAAACCTCAC"
Solution: 1.56

Problem: Look up switch fluorescence ratio: "CTGCGGGAGG"
Solution: 1.01

###

Could you please report measured switch fluorescence ratio for the items listed next?
System: ATP;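 further: ATP exposure 15 min at 22 °C before imaging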
Assay: switch fluorescence ratio, 500 uM ATP over buffer (Cy3 cluster intensity, sum of 5 cycles each) (fold (ratio)); higher = stronger signal-on switching upon ATP binding; sequences stand for … in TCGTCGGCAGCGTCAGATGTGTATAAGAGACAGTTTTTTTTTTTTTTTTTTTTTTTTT…TC
Details: aptamer strand: ATP DNA aptamer (quencher-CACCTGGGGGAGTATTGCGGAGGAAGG + anchor), 100 nM annealed; ATP concentration: 500 uM
No unit in the answer, only the number.

Problem: Look up switch fluorescence ratio: "ATAGGTATGT"
Solution: 0.998

Problem: Look up switch fluorescence ratio: "TTCTTATTTT"
Solution: 0.999

Problem: Look up switch fluorescence ratio: "ACAAGTGACG"
Solution: 0.988

Problem: Look up switch fluorescence ratio: "CGTTGTGACT"
Solution: 0.998

Problem: Look up switch fluorescence ratio: "TTTTAGTCGT"
Solution: 0.991

Problem: Look up switch fluorescence ratio: "AGAGACAGCT"
Solution: 0.994

Problem: Look up switch fluorescence ratio: "TTGGCCACGC"
Solution: 1.02

Problem: Look up switch fluorescence ratio: "AAATAATGGT"
Solution: 1.02

Problem: Look up switch fluorescence ratio: "CGATTCGCAG"
Solution: 1.25

Problem: Look up switch fluorescence ratio: "GATTCAAACG"
Solution: 1.01

Problem: Look up switch fluorescence ratio: "TGCTGACCGA"
Solution: 1.04

Problem: Look up switch fluorescence ratio: "GAAGTTGGAG"
Solution: 0.97

Problem: Look up switch fluorescence ratio: "AAAAGGGCTT"
Solution: 1

Problem: Look up switch fluorescence ratio: "CGAGGGCATG"
Solution: 1.07

Problem: Look up switch fluorescence ratio: "CAGGAGACGC"
Solution: 1.05

Problem: Look up switch fluorescence ratio: "TAAGCAGTTT"
Solution: 1.04

Problem: Look up switch fluorescence ratio: "TGATGAAAAA"
Solution: 1.01

Problem: Look up switch fluorescence ratio: "TTAGTAGGTG"
Solution: 0.98

Problem: Look up switch fluorescence ratio: "GACATAAGTT"
Solution: 1

Problem: Look up switch fluorescence ratio: "ATAAGGCTTT"
Solution: 0.989

Problem: Look up switch fluorescence ratio: "GCGGGGCCAG"
Solution: 0.982

Problem: Look up switch fluorescence ratio: "AATGTTCGGT"
Solution: 0.989

Problem: Look up switch fluorescence ratio: "TTTAGAGGCT"
Solution: 1

Problem: Look up switch fluorescence ratio: "TGATACGGGG"
Solution: 1.01

Problem: Look up switch fluorescence ratio: "AGCCGAAAGG"
Solution: 1.02

Problem: Look up switch fluorescence ratio: "AAAAACATAG"
Solution: 1.03

Problem: Look up switch fluorescence ratio: "GCTAGAAGGT"
Solution: 1.01

Problem: Look up switch fluorescence ratio: "GACGAGTGTG"
Solution: 0.987

Problem: Look up switch fluorescence ratio: "CCGGGCGGGG"
Solution: 1.07

Problem: Look up switch fluorescence ratio: "AGTGTTTGGT"
Solution: 0.989

Problem: Look up switch fluorescence ratio: "TTTGGAGGGT"
Solution: 1.02

Problem: Look up switch fluorescence ratio: "CTGGGACGTG"
Solution: 0.967

Problem: Look up switch fluorescence ratio: "TATCTGTTGT"
Solution: 0.967

Problem: Look up switch fluorescence ratio: "TCATGGGTGG"
Solution: 0.99

Problem: Look up switch fluorescence ratio: "AAGTTTGTTG"
Solution: 0.986

Problem: Look up switch fluorescence ratio: "TTTTGAATTA"
Solution: 1.01

Problem: Look up switch fluorescence ratio: "AGATGGTACT"
Solution: 0.967

Problem: Look up switch fluorescence ratio: "CCAGGGGTCC"
Solution: 2.93

Problem: Look up switch fluorescence ratio: "ATGTAGTGCA"
Solution: 0.995

Problem: Look up switch fluorescence ratio: "TGGGGTACCT"
Solution: 1.08

Problem: Look up switch fluorescence ratio: "TTTGGGTGTG"
Solution: 0.983

Problem: Look up switch fluorescence ratio: "TACTAGTTGG"
Solution: 0.997

Problem: Look up switch fluorescence ratio: "ATGTAACTGT"
Solution: 0.976

Problem: Look up switch fluorescence ratio: "CCTACCCTCC"
Solution: 3.05

Problem: Look up switch fluorescence ratio: "GGATGGCTTC"
Solution: 0.999

Problem: Look up switch fluorescence ratio: "AGGTGAAGGG"
Solution: 1.02

Problem: Look up switch fluorescence ratio: "GAGGTTGGAG"
Solution: 1

Problem: Look up switch fluorescence ratio: "TGGGGGCGTT"
Solution: 1

Problem: Look up switch fluorescence ratio: "AAGAGGGTTT"
Solution: 1.01

Problem: Look up switch fluorescence ratio: "AATGAGATTG"
Solution: 0.989

Problem: Look up switch fluorescence ratio: "CAGGAGGGGT"
Solution: 1.03

Problem: Look up switch fluorescence ratio: "TATGTACTAA"
Solution: 1.08

Problem: Look up switch fluorescence ratio: "CGTGGGCTGT"
Solution: 0.982

Problem: Look up switch fluorescence ratio: "CAACTAAGTT"
Solution: 0.988

Problem: Look up switch fluorescence ratio: "TATAAGTAGG"
Solution: 0.968

Problem: Look up switch fluorescence ratio: "CAGGGGCGCA"
Solution: 1

Problem: Look up switch fluorescence ratio: "CCATGGTTAT"
Solution: 1.03

Problem: Look up switch fluorescence ratio: "ATCTGTGATA"
Solution: 0.977

Problem: Look up switch fluorescence ratio: "AGGCTTATAT"
Solution: 1.01

Problem: Look up switch fluorescence ratio: "GATCTGGGTT"
Solution: 0.994

Problem: Look up switch fluorescence ratio: "TGTTGTTAAA"
Solution: 0.982

Problem: Look up switch fluorescence ratio: "ATACTGAGGC"
Solution: 0.999

Problem: Look up switch fluorescence ratio: "ACGCAGTTCT"
Solution: 1.06

Problem: Look up switch fluorescence ratio: "TGCTCGGGAC"
Solution: 1.09

Problem: Look up switch fluorescence ratio: "GGAAGAGGGT"
Solution: 0.997

Problem: Look up switch fluorescence ratio: "GACTGTTCCG"
Solution: 0.958

Problem: Look up switch fluorescence ratio: "TTCAGTACCT"
Solution: 1.19

Problem: Look up switch fluorescence ratio: "TAACATGAAG"
Solution: 1

Problem: Look up switch fluorescence ratio: "ATTTGAAGTT"
Solution: 0.975

Problem: Look up switch fluorescence ratio: "GGTCGAGGTT"
Solution: 0.991

Problem: Look up switch fluorescence ratio: "AGGAGTTTGC"
Solution: 1.07

Problem: Look up switch fluorescence ratio: "CAATTATTCG"
Solution: 1.04

Problem: Look up switch fluorescence ratio: "AGAGAACTTG"
Solution: 0.983

Problem: Look up switch fluorescence ratio: "CCTAAAGTAG"
Solution: 1.02

Problem: Look up switch fluorescence ratio: "GACTGGGCGA"
Solution: 1.02

Problem: Look up switch fluorescence ratio: "TTGGGAAGAT"
Solution: 0.981

Problem: Look up switch fluorescence ratio: "TAGGGGCACA"
Solution: 1.01

Problem: Look up switch fluorescence ratio: "CAGGGTTTCG"
Solution: 1.02

Problem: Look up switch fluorescence ratio: "ACTTGGGGGG"
Solution: 0.994

Problem: Look up switch fluorescence ratio: "ACGGTCTGGC"
Solution: 1.02

Problem: Look up switch fluorescence ratio: "TTGCGGGGGG"
Solution: 1.03

Problem: Look up switch fluorescence ratio: "AGTTATTGTG"
Solution: 1.04

Problem: Look up switch fluorescence ratio: "TCCGGGTGGG"
Solution: 1.09

Problem: Look up switch fluorescence ratio: "TGGATATGAT"
Solution: 0.998

Problem: Look up switch fluorescence ratio: "GGGTTGCAGC"
Solution: 0.992

Problem: Look up switch fluorescence ratio: "GTGCAATAGT"
Solution: 3.71
